System: caterpillars of the army worm (Spodoptera frugiperda)
Assay remarks: Spodoptera frugiperda test (spray treatment), Example F
Format: in vivo
Particulars: maize leaf discs, 500 g/ha
Result type: Kill rate in % after 7d (%)
Give just the numeric value; % need not be written.

Cc1ccc(-c2ccc(F)c(Cl)c2)cc1-c1c(OC(=O)C(C)(C)C)n2n(c1=O)CCCC2    100

Exercise: For the compound Cc1ccc(-c2ccc(Cl)cc2Cl)cc1-c1c(OC(=O)C(C)(C)C)n2n(c1=O)CCCC2 , give its reported Kill rate in % after 7d.
Solution: 100

Exercise: Answer with the recorded Kill rate in % after 7d for the compound listed here: CCOC(=O)Oc1c(-c2cc(-c3cccc(C(F)(F)F)c3)ccc2C)c(=O)n2n1CCCC2
Solution: 100

Exercise: Provide one value: measured Kill rate in % after 7d of CCOC(=O)Oc1c(-c2cc(-c3ccc(Cl)cc3)ccc2C)c(=O)n2n1CCOCC2
Solution: 100

Exercise: Entry CCOC(=O)Oc1c(-c2cc(-c3cccc(Cl)c3)ccc2C)c(=O)n2n1CCOCC2 needs its Kill rate in % after 7d filled in; supply it.
Solution: 83

Exercise: Consider the compound Cc1ccc(-c2ccc(F)cc2F)cc1-c1c(OC(=O)C(C)(C)C)n2n(c1=O)CCCC2 and give its recorded Kill rate in % after 7d.
Solution: 100

Exercise: Using the record for CCOC(=O)Oc1c(-c2cc(-c3ccc(Cl)c(Cl)c3)ccc2C)c(=O)n2n1CCOCC2 , state its measured Kill rate in % after 7d.
Solution: 100

Exercise: Annotate the compound CCOC(=O)Oc1c(-c2cc(-c3ccc(C(F)(F)F)cc3)ccc2C)c(=O)n2n1CCOCC2 with its measured Kill rate in % after 7d.
Solution: 100

Exercise: Name the recorded Kill rate in % after 7d of the compound listed here: Cc1ccc(-c2ccc(Cl)cc2)cc1-c1c(OC(=O)C(C)(C)C)n2n(c1=O)CCOCC2
Solution: 83

Exercise: For the compound Cc1ccc(-c2ccc(C(F)(F)F)cc2)cc1-c1c(OC(=O)C(C)(C)C)n2n(c1=O)CCOCC2 , give its measured Kill rate in % after 7d value.
Solution: 100

Exercise: Give the measured Kill rate in % after 7d for CCOC(=O)Oc1c(-c2cc(-c3ccc(Cl)c(Cl)c3)ccc2C)c(=O)n2n1CCCC2
Solution: 83

Exercise: Determine from records and report Kill rate in % after 7d for Cc1ccc(-c2ccc(F)cc2F)cc1-c1c(OC(=O)C(C)(C)C)n2n(c1=O)CCOCC2
Solution: 100
